System: JHH-2 (Hepatocellular Carcinoma);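 also: after 72 h of two-drug dosing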
Assay: Bliss excess, mean over the matrix (fraction); higher = more synergy
# Bliss excess annotations

MOLECULE: NC1(C(=O)N[C@@H](CCO)c2ccc(Cl)cc2)CCN(c2ncnc3[nH]ccc23)CC1 [Capivasertib] + CCN(CCO)CCCOc1ccc2c(Nc3cc(CC(=O)Nc4cccc(F)c4)[nH]n3)ncnc2c1 [AZD2811] (first compound max 10 µM, 7x7, partner max 1 µM)
Bliss excess: -0.0437
--
MOLECULE: C=CCn1c(=O)c2cnc(Nc3ccc(N4CCN(C)CC4)cc3)nc2n1-c1cccc(C(C)(C)O)n1 [AZD1775] + Nc1ccn([C@@H]2O[C@H](CO)[C@@H](O)C2(F)F)c(=O)n1 [Gemcitabine] (first compound max 1 µM, partner max 0.3 µM)
Bliss excess: 0.0264
--
MOLECULE: CC1(C)CCC(CN2CCN(c3ccc(C(=O)NS(=O)(=O)c4ccc(NCC5CCOCC5)c([N+](=O)[O-])c4)c(Oc4cnc5[nH]ccc5c4)c3)CC2)=C(c2ccc(Cl)cc2)C1 [Venetoclax] + C1CN(CCC1(C(=O)N[C@@H](CCO)C2=CC=C(C=C2)Cl)N)C3=NC=NC4=C3C=CN4 [Capivasertib] (first compound max 1 µM, 7x7, partner max 3 µM)
Bliss excess: 0.0139
